The entries below are paired with their reported pKi.
# target: UniProt Q95PM0
# Sequence (Q95PM0 entry or part of it): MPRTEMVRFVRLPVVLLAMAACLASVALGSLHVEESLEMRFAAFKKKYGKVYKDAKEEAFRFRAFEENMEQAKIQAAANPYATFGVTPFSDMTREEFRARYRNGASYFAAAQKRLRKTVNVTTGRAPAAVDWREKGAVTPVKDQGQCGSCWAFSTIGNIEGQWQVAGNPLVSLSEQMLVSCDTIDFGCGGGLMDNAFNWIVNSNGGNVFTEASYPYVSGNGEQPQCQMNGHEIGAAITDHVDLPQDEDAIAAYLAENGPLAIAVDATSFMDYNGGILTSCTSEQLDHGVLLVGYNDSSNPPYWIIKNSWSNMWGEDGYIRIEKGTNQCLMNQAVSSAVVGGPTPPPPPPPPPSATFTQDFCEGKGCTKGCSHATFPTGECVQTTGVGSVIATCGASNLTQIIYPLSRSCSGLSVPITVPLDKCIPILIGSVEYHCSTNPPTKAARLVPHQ
# experiment_notes: Fluorometric inhibition assay, rhodesain
# Format: biochemical
# condition_label: Ki, Rhodesain
A value of pKi is the negative decimal logarithm of a concentration given in moles per litre.

>>> recorded_number("CC(C)C[C@@H](/C=C(\\F)S(=O)(=O)c1ccccc1)NC(=O)[C@H](Cc1ccccc1)NC(=O)c1cnccn1 [compound 55]")
6.34
>>> recorded_number("CCOC(=O)/C=C/C(=O)[C@H](CC(C)C)NC(=O)[C@H](Cc1ccccc1)NC(=O)c1cnccn1 [compound 68]")
8.05
>>> recorded_number("O=C(N[C@@H](Cc1ccccc1)C(=O)N[C@H](/C=C/S(=O)(=O)c1ccccc1)CCc1ccccc1)OCc1ccccc1 [compound 16]")
7.70

Item CCOC(=O)C=CC(=O)C(COCc1ccccc1)NC(=O)C(CC1CCCCC1)NC(=O)N1CCOCC1 (stereo not shown) [compound 40] has what recorded pKi?
7.46

Proceed to O=C(N[C@@H](Cc1ccccc1)C(=O)N[C@H](/C=C(\F)S(=O)(=O)c1ccccc1)CCc1ccccc1)OCc1ccccc1 [compound 17]
5.45

Proceed to N#C[C@H](CCc1ccccc1)NC(=O)[C@H](Cc1ccccc1)NC(=O)OCc1ccccc1 [compound 25]
7.06

Proceed to N#CC(COCc1ccccc1)NC(=O)C(CC1CCCCC1)NC(=O)N1CCOCC1 (stereo not shown) [compound 30]
7.68
